TARGET_OR_TEST_SYSTEM: hTLR9 (Homo sapiens, UniProt Q9NR96)
Sequence (Q9NR96 26-1032): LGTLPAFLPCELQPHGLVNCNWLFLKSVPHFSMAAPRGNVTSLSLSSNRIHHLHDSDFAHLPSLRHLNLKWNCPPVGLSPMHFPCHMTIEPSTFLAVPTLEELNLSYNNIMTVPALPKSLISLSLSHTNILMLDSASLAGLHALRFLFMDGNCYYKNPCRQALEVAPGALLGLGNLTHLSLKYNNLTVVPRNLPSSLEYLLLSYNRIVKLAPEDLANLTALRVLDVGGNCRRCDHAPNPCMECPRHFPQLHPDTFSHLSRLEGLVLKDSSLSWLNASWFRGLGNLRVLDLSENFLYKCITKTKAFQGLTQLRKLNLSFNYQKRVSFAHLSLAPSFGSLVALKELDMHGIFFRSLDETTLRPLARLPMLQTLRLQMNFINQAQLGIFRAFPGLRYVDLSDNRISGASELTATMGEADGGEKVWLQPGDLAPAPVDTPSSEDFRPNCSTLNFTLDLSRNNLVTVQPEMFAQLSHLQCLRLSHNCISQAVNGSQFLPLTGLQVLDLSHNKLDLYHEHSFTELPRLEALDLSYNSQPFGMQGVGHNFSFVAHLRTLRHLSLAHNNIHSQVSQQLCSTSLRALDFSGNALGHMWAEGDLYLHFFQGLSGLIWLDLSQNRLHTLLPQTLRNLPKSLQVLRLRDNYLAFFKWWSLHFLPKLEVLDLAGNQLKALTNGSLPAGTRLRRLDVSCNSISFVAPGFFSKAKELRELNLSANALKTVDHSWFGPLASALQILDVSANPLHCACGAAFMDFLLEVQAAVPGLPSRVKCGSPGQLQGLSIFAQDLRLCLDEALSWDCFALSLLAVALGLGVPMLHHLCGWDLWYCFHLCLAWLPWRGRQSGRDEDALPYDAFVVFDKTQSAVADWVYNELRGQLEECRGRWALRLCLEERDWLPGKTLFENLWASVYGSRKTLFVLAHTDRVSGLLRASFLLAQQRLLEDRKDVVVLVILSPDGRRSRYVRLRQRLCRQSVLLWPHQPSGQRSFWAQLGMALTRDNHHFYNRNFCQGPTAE
ASSAY_TEXT: HEK293-Blue-hTLR-9 cells assay (SEAP reporter, ODN2006 stimulation)
Format: cell-based
Set-up: host or cells: HEK293 (HEK-Blue)
RECORDED_CONDITIONS: HEK293-Blue-hTLR9 cells, ODN2006, 20 hrs; read-out: HEK/hTLR9 IC50
pIC50: −log10 of the molar value.
# key: entry, value: pIC50
ASSAY_METRIC: pIC50

{"columns": ["COMPOUND", "TARGET_OR_TEST_SYSTEM", "ASSAY_METRIC", "REPORTED_VALUE"],
 "data": [
  ["[2H]c1ccc2c(N3C[C@H](CN4CCN(c5ccc6c(n5)CN[C@@H]6C)CC4)O[C@H](C)C3)ccc(C#N)c2n1 (single isomer, unassigned) [Example 98]", "hTLR9 (Homo sapiens, UniProt Q9NR96)", "pIC50", 7.04],
  ["C[C@@H]1CN(c2ccc(C#N)c3ncccc23)C[C@H](CN2CCN(c3cc4c(cn3)CNC4)CC2)O1 [Example 18]", "hTLR9 (Homo sapiens, UniProt Q9NR96)", "pIC50", 7.01],
  ["[2H]c1nc2c(C#N)ccc(N3C[C@H](CN4CCN(c5ccc6c(n5)CN[C@H]6C)CC4)O[C@H](C)C3)c2nc1[2H] (single isomer, unassigned) [Example 96]", "hTLR9 (Homo sapiens, UniProt Q9NR96)", "pIC50", 6.94],
  ["C[C@@H]1CN(c2ccc(C#N)c3ncccc23)C[C@H](CN2CCN(c3ccc4c(c3)CCNC4)CC2)O1 [Example 5]", "hTLR9 (Homo sapiens, UniProt Q9NR96)", "pIC50", 7.19],
  ["C[C@@H]1CN(c2ccc(C#N)c3ncccc23)C[C@H](CN2CC3[C@H](C2)OCCN3c2ccc3c(n2)CCNC3)O1 (stereo in doubt) [Example 53]", "hTLR9 (Homo sapiens, UniProt Q9NR96)", "pIC50", 7.16],
  ["C[C@@H]1CN(c2ccc(C#N)c3ncccc23)C[C@H](CN2CCN(c3cc4c(cn3)CN[C@@H](C)C4)CC2)O1 (single isomer, unassigned) [Example 71]", "hTLR9 (Homo sapiens, UniProt Q9NR96)", "pIC50", 7.04],
  ["C[C@@H]1CN(c2ccc(C#N)c3ncccc23)C[C@H](CN2CC3(C2)CN(c2ccc4c(c2)CCNC4)CCO3)O1 [Example 44]", "hTLR9 (Homo sapiens, UniProt Q9NR96)", "pIC50", 7.07]
]}

Reference source for all entries: patent EP3807270B1
